Entries and their measured melting point follow.

>>> print(df.to_string())
                                 smiles_str  measured_value
0     COCc1ccc(C(=O)N/N=C/c2cccc(Br)c2O)cc1   187 to 188 °C
1  CCCOCc1ccc(C(=O)N/N=C/c2cc(Br)cc(Br)c2O)cc1   190 to 192 °C
2  CC(C)OCc1ccc(C(=O)N/N=C/c2cc(Br)cc(Br)c2O)cc1   186 to 187 °C
3     COCc1ccc(C(=O)N/N=C/c2ccc(Br)cc2O)cc1   198 to 199 °C

Exercise: Recall and state the measured melting point for CC(C)OCc1ccc(C(=O)N/N=C/c2ccc(Br)cc2O)cc1 .
Key: 193 to 195 °C
